Target system: JAK3 (catalytic domain, His-tag) (Homo sapiens, UniProt P52333)
Construct: All four purified enzymes contain only the catalytic domain; His (N); purchased Carna Biosciences, Inc; host or cells: baculovirus expression system
Sequence (P52333 822-1111 limits assumed): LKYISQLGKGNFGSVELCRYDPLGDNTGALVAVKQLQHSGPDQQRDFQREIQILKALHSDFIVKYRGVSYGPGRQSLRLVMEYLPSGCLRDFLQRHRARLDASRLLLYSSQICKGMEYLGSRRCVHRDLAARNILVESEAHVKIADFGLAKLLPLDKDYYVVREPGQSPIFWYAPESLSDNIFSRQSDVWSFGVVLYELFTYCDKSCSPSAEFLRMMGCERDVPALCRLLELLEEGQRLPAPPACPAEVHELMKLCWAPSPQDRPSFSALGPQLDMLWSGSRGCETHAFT
Measurement description: JAK kinase assay (HTRF, phosphorylation of TK substrate-biotin), JAK3
Format: biochemical
Condition details: HTRF assay, ATP at Km (2 μM); read-out: JAK3 kinase inhibitory activity (EC50 indicator)
pEC50: −log10 of the molar value.
Entries and their measured pEC50 follow.

1. NS(=O)(=O)c1cnn(CC(=O)N2CCN(c3ncnc4[nH]ccc34)CC23CC3)c1    > 7.00
2. O=C(c1csc2ccccc12)N1CCN(c2ccnc3[nH]ccc23)CC12CC2    < 6.30
3. N#Cc1cccc(CC(=O)N2CCN(c3ncnc4[nH]cc(Cl)c34)CC23CC3)c1    6.30 to 7.00
4. Cc1cc(S(N)(=O)=O)ccc1C(=O)N1CCN(c2ncnc3[nH]ccc23)CC12CC2    > 7.00
5. NS(=O)(=O)c1c[nH]c(C(=O)N2CCN(c3ncnc4[nH]ccc34)CC23CC3)c1    > 7.00
6. Cc1c[nH]c2ncnc(N3CCN(C(=O)C4(C#N)CC4)C4(CC4)C3)c12    < 6.30
7. O=C(c1ccc2cc[nH]c2c1)N1[C@@H]2CC[C@@H]1CN(c1ncnc3[nH]ccc13)C2    > 7.00

O=C(c1ccc(S(=O)(=O)NCCc2cccs2)cc1)N1CCN(c2ncnc3[nH]ccc23)CC12CC2 yielded pEC50 of 6.30 to 7.00

* * *

Target system: TYK2 (aa 871-1187, catalytic domain, GST-tag) (Homo sapiens, UniProt P29597)
Construct: JAK1 (aa 850-1154) and TYK2 (aa 871-1187) are expressed with an N-terminally fused GST-tag; GST (N); purchased Carna Biosciences, Inc; host or cells: baculovirus expression system
Sequence (P29597 871-1187): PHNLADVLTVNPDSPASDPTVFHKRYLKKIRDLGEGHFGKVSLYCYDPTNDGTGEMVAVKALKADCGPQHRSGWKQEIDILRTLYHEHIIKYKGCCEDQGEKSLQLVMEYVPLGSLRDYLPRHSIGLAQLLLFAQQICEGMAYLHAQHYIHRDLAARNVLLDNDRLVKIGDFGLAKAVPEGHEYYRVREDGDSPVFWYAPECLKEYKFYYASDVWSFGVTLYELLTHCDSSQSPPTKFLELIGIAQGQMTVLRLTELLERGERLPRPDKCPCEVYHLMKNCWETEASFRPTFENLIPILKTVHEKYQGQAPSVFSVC
Measurement description: JAK kinase assay (HTRF, phosphorylation of TK substrate-biotin), TYK2
Assay type: biochemical
Condition details: ATP at Km (13 μM); read-out: TYK2 kinase inhibitory activity (EC50 indicator)
pEC50: −log10 of the molar value.
Property measured: pEC50

1) O=C(Cc1ccncc1)N1[C@@H]2CC[C@@H]1CN(c1ncnc3[nH]ccc13)C2    < 6.30
2) O=C(c1c[nH]c2ccccc12)N1CCN(c2ncnc3[nH]ccc23)CC12CC2    6.30 to 7.00
3) CN(CCC#N)C(=O)C1(C(=O)N2CCN(c3ncnc4[nH]ccc34)CC23CC3)CC1    < 6.30

COCCOC(=O)N1[C@@H]2CC[C@H]1CN(c1ncnc3[nH]ccc13)C2 yielded pEC50 of < 6.30

N#CCOc1cccc(C(=O)N2CCN(c3ncnc4[nH]ccc34)CC23CC3)c1 yielded pEC50 of 6.30 to 7.00

O=C(c1ccccn1)N1CCN(c2ncnc3[nH]ccc23)CC12CC2 yielded pEC50 of 6.30 to 7.00

N#Cc1ccc(CC(=O)N2[C@@H]3CC[C@@H]2CN(c2ncnc4[nH]ccc24)C3)cc1 yielded pEC50 of < 6.30

Cc1c[nH]c2ncnc(N3CCN(C(=O)c4cccc(C#N)c4)C4(CC4)C3)c12 yielded pEC50 of < 6.30

COC(=O)c1cc2c(N3CCN(C(=O)Cc4cccc(CC#N)c4)C4(CC4)C3)ncnc2[nH]1 yielded pEC50 of < 6.30

CC(=O)NCC(=O)N1CCN(c2ncnc3[nH]ccc23)CC12CC2 yielded pEC50 of < 6.30

COC(=O)c1cc2c(N3CCN(C(=O)Cc4ccc(C#N)cc4)C4(CC4)C3)ncnc2[nH]1 yielded pEC50 of < 6.30
